Target: full length spike (S) protein of SARS-CoV-2 (SARS-CoV-2, UniProt P0DTC2 14-1273)
Test: cell-based or functional assay
readout: IC50, pseudovirus neutralization

The examples below pair each entry with its known result.
-- ask IC50, pseudovirus neutralization for P2B-2F6 (antibody, V domains shown) VH: QVQLQESGPGLVKPSETLSLTCTVSGYSISSGYYWGWIRQPPGKGLEWIGSIYHSGSTYYNPSLKTRVTISVDTSKNQFSLKLSSVTAADTAVYYCARAVVGIVVVPAAGRRAFDIWGQGTMVTVSS VL: QSALTQPPSASGSPGQSVTISCTGTSSDVGGYNYVSWYQQHPGKAPKLMIYEVSKRPSGVPDRFSGSKSGNTASLTVSGLQAEDEADYYCSSYAGSNNLVFGGGTKLTVLG ?
-- reply 0.05 µg/mL

-- ask IC50, pseudovirus neutralization for P2A-1A9 (antibody, V domains shown) VH: EVQLVESGGGLVQPGRSLRLSCAASGFTFDDYAMHWVRQVPGKGLEWVSGISWNGGIIGYADSVKGRFTISRDNAKTSLYLQMNSLRAEDTALYYCAKVAGRGDYDYYYGMDVWGQGTTVTVSS VL: QSVLTQPPSVSGAPGQRVTISCTGSSSNIGAGYDVHWYQQLPGTAPKLLIYGNNNRPSGVPDRFSGSKSGTSASLAITGLQAEDEADYYCQSYDSSLSGSVFGGGTKLTVLG ?
-- reply 26.3 µg/mL

-- ask IC50, pseudovirus neutralization for P2B-2G4 (antibody, V domains shown) VH: QVQLVESGGGVVQPGRSLRLSCAASGFTFSSYGMHWVRQAPGKGLEWVAVIWYDGSNKYYADSVKGRFTISRDNSKNTLYLQMNSLRAEDTAVYYCARGAAMVWLDYWGQGTLVTVSS VL: QSALTQPRSVSGSPGQSVTISCTGTSSDVGGYNYVSWYQQHPGKAPKLMIYDVSKRPSGVPDRFSGSKSGNTASLTISGLQAEDEADYYCCSYAGSYTFVVFGGGTKLTVLG ?
-- reply 5.11 µg/mL

-- ask IC50, pseudovirus neutralization for P2B-2G11 (antibody, V domains shown) VH: EVQLVESGGGLVQPGRSLRLSCAASGFTFDDYAMHWVRQAPGKGLEWVSGISWNGGIIGYADSVKGRFTISRDNAKTSLYLQMNSLKPEDTALYYCAKVAGRGDYDYYYGMDVWGQGTTVTVSS VL: QSVLTQPPSVSGAPGQRVTISCTGSSSNIGAGYDVHWYQQLPGTAPKLLIYGNNNRPSGVPDRFSGSKSGTSASLAITGLQAEDEADYYCQSYDSSLSGSVFGGGTKLTVLG ?
-- reply 34.8 µg/mL

-- ask IC50, pseudovirus neutralization for P2A-1B3 (antibody, V domains shown) VH: EVQLVESGGGLVQPGGSLRLSCVASGFSFNRYSMNWLRQTPRKGLEWLSYISASGNTIYYADSVRGRFTTSRDNAKNTLYLQMNSLRDDDTAVYFCARPAMVREGTYNWFDPWGQGTLVTVSS VL: EIVLTQSPGTLSLSPGERATLSCRASQSVSNDYLAWYQQKPGQAPRLLIYYASSRATGIPDRFSGSGSGTDFTLTISRLEPGDSAVYYCQQYGDSPPITFGQGTRLEIKR ?
-- reply 16.8 µg/mL

As a next step, examine the binder that follows.
-- ask IC50, pseudovirus neutralization for P2A-1A8 (antibody, V domains shown) VH: EVQLVESGGDLVQPGRSLRLSCAASGFAFDDYAMHWVRQAPGKGLEWVSGSTWNSGTIAYADSVKGRFTISRDNAKKSLYLQMNSLRTEDTALYYCAKLGGYSDYDYPRPGDHYYGLDVWGQGTTVTVSS VL: QSALTQPASVSGSPGQSITISCTGTSSDVGSYNLVSWYQQHPGKVPKLLIYDVNKRPSGISNRFSGSKSGNTASLTISGLQAEDEADYYCRSYTDSNTYVFGTGTKVTVLG ?
-- reply 7.68 µg/mL
